Test system: UACC-257 melanoma
Assay: NCI-60 one-dose screen, 48 h
Details: 10 µM unless noted
Description: Cells are grown in 96 well plates and exposed to the test compound for 48 hours. Compounds are tested at a single concentration, which is 10^-5 M for most compounds. The reported endpoint is percent growth (GI% or GIPRCNT), where numbers from 0 - 100% represent growth inhibition, and numbers from -100% - 0 represent cell death. For example, a value of 40 represents 60% growth inhibition. A value of 0 means no net growth occurred over the course of the experiment. […]
About 83,000 compounds went through this panel and 20% of them were active in at least one assay; those are over-represented in the sample as a whole. The source made the active and inactive calls. Rule for the calls: active = growth percent below 10; inactive = the rest.
Choose the fitting class; nothing outside true (1) = active, false (0) = inactive is accepted.

For orientation, consider the following solved cases.
>  <compound>
COc1ccc2c(c1)/C(=C\c1sc(=S)[nH]c1O)C(C(=O)O)=N2

>  <assigned-label>
false (0)

$$$$
>  <compound>
O[C@H]1CO[C@H]2[C@@H]1OC[C@@H]2Oc1ccc(Nc2nc(Nc3ccc(F)c(Cl)c3)ncc2F)cc1Cl

>  <assigned-label>
false (0)

$$$$
>  <compound>
CS(=O)(=O)c1ccc(-c2nc3cc(Cl)ccc3n2CC(=O)NO)cc1

>  <assigned-label>
false (0)

$$$$
>  <compound>
Cc1nn(-c2ccccc2)c2c1C(c1ccc([N+](=O)[O-])cc1)C(C#N)=C(N)O2 (centres undefined)

>  <assigned-label>
false (0)

$$$$
>  <compound>
COc1ccc(C2CC(c3ccccc3)=NN2c2nc(C)c(C(C)=O)s2)cc1 (centres undefined)

>  <assigned-label>
false (0)

$$$$

**Query** Record request — test call for COc1cc2c(cc1OC)-c1ccc3cc4c(cc3c1N(CCCN(C)C)C2)OCO4
**Result** false (0)

* * *

Tested on: SN12C renal
Assay: NCI-60 one-dose screen, 48 h (100 = growth as untreated, 0 = no growth, -100 = all killed)
Details: 10 µM unless noted
Method: Growth inhibition of the SN12C human tumor cell line is measured as a screen for anti-cancer activity. Cells are grown in 96 well plates and exposed to the test compound for 48 hours. Compounds are tested at a single concentration, which is 10^-5 M for most compounds. The reported endpoint is percent growth (GI% or GIPRCNT), where numbers from 0 - 100% represent growth inhibition, and numbers from -100% - 0 represent cell death. For example, a value of 40 represents 60% growth inhibition. […]
About 83,000 compounds went through this panel and 20% of them were active in at least one assay; those are over-represented in the sample as a whole.
measurement-label: growth (%)
Use % as the unit, but write only the number.

**Query** // lookup growth for COc1ccc(-c2nc3sc4c(c3c(=O)[nH]2)CCCC4)c2ccccc12
**Result** 36.2

* * *

Catalogue of compounds with associated growth
Test system: HCT-116 colon
Test: NCI-60 one-dose screen, 48 h (100 = growth as untreated, 0 = no growth, -100 = all killed)
Conditions: 10 µM unless noted
About 83,000 compounds went through this panel and 20% of them were active in at least one assay; those are over-represented in the sample as a whole.
Respond numerically; units are % and should not be typed.

Sample records with growth:
>  <compound>
O=C(NC(=S)Nc1ccc(-c2nc3ccccc3[nH]2)cc1)c1ccc2ccccc2c1

>  <growth (%)>
3.95

$$$$
>  <compound>
Cc1[nH]c(-c2nc3ccccc3[nH]2)c(C)c1C(=O)N1CCOCC1

>  <growth (%)>
101

$$$$
>  <compound>
O=C1NC(=S)S/C1=C\N1N=C(c2ccc(Cl)cc2)CC1c1ccc(F)cc1 (stereo not given)

>  <growth (%)>
81.9

$$$$

# input for lookup
**Query** So what's the measured growth for this one? NC(=Nc1ccc(N)cc1)C(N)=Nc1ccc(N)cc1
**Result** 95.9
